# System: HEK-293T
# assay explanation: Multiplex assay against HEK293T
# Assay type: toxicity, cell-based
# condition: human, 12 h, 1 µM, compound concentration 1 uM, replicate 1
Overview of recorded Population Fragmented Nuclei (%) for various compounds
# number only, unit % dropped from output

Reference set (2 entries):
{"molecule smiles": "Nc1ccc(C(=O)Nc2cccc(-c3nc(N4CCOCC4)c4oc5ncccc5c4n3)c2)cn1", "unit of measurement": "%", "Population Fragmented Nuclei (%)": 24}
{"molecule smiles": "Cc1cc2c(cc1N1C(=O)c3cccc4c(CCCO)ccc(c34)C1=O)n(C)c(=O)n2C", "unit of measurement": "%", "Population Fragmented Nuclei (%)": 14}

Check the records and state Population Fragmented Nuclei (%) for "CCOc1cc2ncc(C#N)c(Nc3ccc(OCc4cccc(F)c4)c(Cl)c3)c2cc1NC(=O)/C=C/CN(C)C"
19

Identify the reported Population Fragmented Nuclei (%) for the following entry. "CN(C)CCOc1ccc(-c2nc(-c3ccncc3)c(-c3ccc4c(c3)CC/C4=N\O)[nH]2)cc1"
15

###

# Test system: Fibroblast
# assay explanation: Multiplex assay against human fibroblast
# Assay type: toxicity, cell-based
# condition: 48 h, 1 µM, compound concentration 1 uM, replicate 1
measure name: Population Healthy Nuclei (%)
The response must be a number in % with no trailing unit.

Here are 3 molecules together with their reported answers.
{"molecule smiles": "CCc1cc2c(cc1CC)CC(NC[C@H](O)c1ccc(O)c3[nH]c(=O)ccc13)C2", "test target": "Fibroblast", "unit of measurement": "%", "recorded result": 64}
{"molecule smiles": "CCCn1c(=O)c2[nH]c(C34CC5CC(CC3C5)C4)nc2n(CCC)c1=O", "test target": "Fibroblast", "unit of measurement": "%", "recorded result": 55}
{"molecule smiles": "COc1cc2c(NC3CCN(C(C)C)CC3)nc(N3CCC(F)(F)CC3)nc2cc1OCCCN1CCCC1", "test target": "Fibroblast", "unit of measurement": "%", "recorded result": 43}

Turning now to a further record.
Look up and state reported Population Healthy Nuclei (%) for "Cc1cc2c(cc1N1C(=O)c3cccc4c(CCCO)ccc(c34)C1=O)n(C)c(=O)n2C"
45

###

# Tested on: U2OS
# assay explanation: Incucyte cell viability with U2OS; further: filed as whole numbers so only -1 and 0 and 1 occur
# Assay type: toxicity, cell-based
# condition: human, 24 h, 10 µM, compound concentration 10 uM, replicate number 1, timepoint 24 hours
measure name: Growth Rate

In the examples that follow, each entry is paired with its recorded Growth Rate.
{"compound": "COc1ccc(COc2ccc(Cc3cnc(N)nc3N)cc2OC)cc1 [GW632580X]", "measure name": "Growth Rate", "recorded result": 1}
{"compound": "CCCCN(CCCC)C(=O)CN1C[C@@H](c2cc(OC)c3c(c2)OCO3)[C@H](C(=O)O)[C@H]1CC(C)(C)CCC", "measure name": "Growth Rate", "recorded result": 0}
{"compound": "CCC(=O)N1CC[C@H](Nc2ncnc3c2CN(c2cnc(OC)c(C(F)(F)F)c2)CC3)C1", "measure name": "Growth Rate", "recorded result": 0}
{"compound": "O=C(O)c1ccc2cc(-c3ccc(O)c(C45CC6CC(CC(C6)C4)C5)c3)ccc2c1", "measure name": "Growth Rate", "recorded result": 0}
{"compound": "N#Cc1cnc(Nc2cc(NC[C@H]3CNCCO3)c(C(F)(F)F)cn2)cn1", "measure name": "Growth Rate", "recorded result": 0}
{"compound": "CCc1cc2c(c(CC)n1)CCC(=O)N2Cc1ccc(-c2ccccc2-c2nnn[nH]2)cc1.Cl", "measure name": "Growth Rate", "recorded result": 0}
{"compound": "CNc1nc(Nc2cnn([C@H]3CCN(C4COC4)C[C@@H]3F)c2Cl)ncc1C(F)(F)F", "measure name": "Growth Rate", "recorded result": 1}

Turning now to a further record.
Input "C[C@H](c1ccnc(Nc2nc3ccc(-c4cc(N(C)C)ncn4)cc3[nH]2)c1)N1CCN(C(=O)CC(F)(F)F)CC1" , output reported Growth Rate.
1

###

# System: U2OS
# assay explanation: Multiplex assay against U2OS
# Assay type: toxicity, cell-based
# condition: human, 24 h, 10 µM, compound concentration 10 uM, replicate 2
Criterion: Population Healthy Nuclei (%) meeting or surpassing 50%. Met: MET. Not met: NOT MET.

Worked cases, answers included:
{"compound": "CC(C)(C)c1cnc(CSc2cnc(NC(=O)C3CCNCC3)s2)o1 [BMS-387032]", "label": "MET"}
{"compound": "CCc1cc2c(cc1CC)CC(NC[C@H](O)c1ccc(O)c3[nH]c(=O)ccc13)C2 [INDACATEROL]", "label": "MET"}
{"compound": "CNC(=O)c1cc(Oc2ccc(NC(=O)Nc3cc(C(C)(C)C)nn3-c3ccc4ncccc4c3)c(F)c2)ccn1 [REBASTINIB]", "label": "MET"}
{"compound": "CCOc1cc(N2CCC(O)CC2)ccc1Nc1ncc2c(n1)N(C1CCCC1)CCC(=O)N2C", "label": "MET"}
{"compound": "CN(C)C/C=C/C(=O)Nc1cc2c(Nc3ccc(F)c(Cl)c3)ncnc2cc1O[C@H]1CCOC1.O=C(O)/C=C\\C(=O)O.O=C(O)/C=C\\C(=O)O [AFATINIB DIMALEATE]", "label": "NOT MET"}
{"compound": "Cl.Cl.Nc1ncnc2c1c(-c1cccc(OCc3ccccc3)c1)cn2[C@H]1C[C@@H](CN2CCC2)C1", "label": "NOT MET"}
{"compound": "Nc1nc2c(c(N3CCNCC3)n1)CCC1=C2[C@@H]2CCCC[C@@H]2O1", "label": "NOT MET"}
{"compound": "Nc1ccc(C(=O)Nc2cccc(-c3nc(N4CCOCC4)c4oc5ncccc5c4n3)c2)cn1", "label": "NOT MET"}

Determine whether this compound has Population Healthy Nuclei (%) no lower than 50%: CCOc1cc2ncc(C#N)c(Nc3ccc(OCc4cccc(F)c4)c(Cl)c3)c2cc1NC(=O)/C=C/CN(C)C [HKI-357]
MET

Record Cc1nc(Cc2cccc(C(F)(F)F)c2)sc1-c1ccc(C(N)=O)nc1 [TP-024n] ; criterion: Population Healthy Nuclei (%) no lower than 50%. Met?
MET

Is Population Healthy Nuclei (%) at least 50%? Consider "COc1cc2c(NC3CCN(C(C)C)CC3)nc(N3CCC(F)(F)CC3)nc2cc1OCCCN1CCCC1"
MET

Check the entry "COc1ccc(NS(=O)(=O)c2sc3ccc(Cl)cc3c2C)cc1N1CCNCC1.Cl" : does Population Healthy Nuclei (%) equal or exceed 50%?
NOT MET

Check the entry "COc1cc2c(Nc3ccc(NC(=O)c4ccccc4)cc3)ncnc2cc1OCCCN1CCOCC1" : does Population Healthy Nuclei (%) equal or exceed 50%?
MET

I'd appreciate it if you could say whether "Cc1cc2c(cc1N1C(=O)c3cccc4c(CCCO)ccc(c34)C1=O)n(C)c(=O)n2C" has Population Healthy Nuclei (%) at least equal to 50%.
MET

###

# Tested on: Fibroblast
# assay explanation: Multiplex assay against human fibroblast
# Type: toxicity, cell-based
# condition: 48 h, 10 µM, compound concentration 10 uM, replicate 1
measure name: Population Tubulin-Different-Phenotype (%)
Supply the numeric figure in %, leaving out any unit text.

Here is how some molecules turned out for Population Tubulin-Different-Phenotype (%).
{"molecule": "C1=N/C2=N/c3ccc(OCCN4CCCC4)c(c3)COC/C=C\\COCc3cccc(c3)C(=C1)N2", "recorded result": 50}
{"molecule": "CCn1c(-c2nonc2N)nc2cnc(Oc3cccc(NC(=O)c4ccc(OCCN5CCOCC5)cc4)c3)cc21 [GSK-269962A]", "recorded result": 80}
{"molecule": "COc1ccc(NS(=O)(=O)c2sc3ccc(Cl)cc3c2C)cc1N1CCNCC1.Cl", "recorded result": 73}

Jot down Population Tubulin-Different-Phenotype (%) (Fibroblast) of CC(C)Oc1ccc(C(=O)N[C@H](CNC(=O)CN(C)C)Cc2ccc(-c3cn4cccc([C@H](C)O)c4n3)cc2)cc1Cl [GSK-923295A] .
65

Give Population Tubulin-Different-Phenotype (%) for this entry on Fibroblast: "Cc1cc2c(cc1N1C(=O)c3cccc4c(CCCO)ccc(c34)C1=O)n(C)c(=O)n2C"
62

###

# Tested on: Fibroblast
# assay explanation: Incucyte cell viability with human fibroblast; further: filed as whole numbers so only -1 and 0 and 1 occur
# Format: toxicity, cell-based
# condition: 6 h, 10 µM, compound concentration 10 uM, replicate number 2, timepoint 6 hours
measure name: Growth Rate
Just the number.

Solved cases below.
{"compound": "CNC(=O)c1cc(Oc2ccc(NC(=O)Nc3cc(C(C)(C)C)nn3-c3ccc4ncccc4c3)c(F)c2)ccn1", "Growth Rate": 1}
{"compound": "CCc1cc2c(c(CC)n1)CCC(=O)N2Cc1ccc(-c2ccccc2-c2nnn[nH]2)cc1.Cl", "Growth Rate": 1}
{"compound": "COc1cccc(OC)c1-c1cc(C(=O)NC2(C(=O)O)C3CC4CC(C3)CC2C4)nn1-c1ccnc2cc(Cl)ccc12 (centres undefined)", "Growth Rate": 1}
{"compound": "CO[C@@H]1COCC[C@@H]1N[C@@H]1CC[C@@](C(=O)N2CCc3ncc(C(F)(F)F)cc3C2)(C(C)C)C1", "Growth Rate": 0}
{"compound": "COc1ccccc1C(=O)Nc1cc2c(cc1N1CCCC1)n(C)c(=O)n2C", "Growth Rate": 0}
{"compound": "O=C(NCc1ccc(F)cc1)C1CCN(S(=O)(=O)c2cc(Cl)cc(Cl)c2)CC1", "Growth Rate": 1}
{"compound": "Cc1cc(C)cc(C(=O)N(C)[C@H](Cc2ccc(-c3ccccc3)cc2)C(=O)N[C@@H](Cc2c[nH]c3ccccc23)C(=O)O)c1", "Growth Rate": 0}
{"compound": "C[C@H](CO)Nc1nc(SCc2cccc(Cl)c2F)nc2[nH]c(=O)sc12", "Growth Rate": 0}

The record that follows has no Growth Rate shown yet.
For "COc1ccc(NS(=O)(=O)c2sc3ccc(Cl)cc3c2C)cc1N1CCNCC1.Cl" , write its Growth Rate.
0
